# STUDY SYSTEM: recombinant HparOBP14 (Holotrichia parallela, UniProt A0A0G2YD86)
# Sequence (A0A0G2YD86 entry or part of it): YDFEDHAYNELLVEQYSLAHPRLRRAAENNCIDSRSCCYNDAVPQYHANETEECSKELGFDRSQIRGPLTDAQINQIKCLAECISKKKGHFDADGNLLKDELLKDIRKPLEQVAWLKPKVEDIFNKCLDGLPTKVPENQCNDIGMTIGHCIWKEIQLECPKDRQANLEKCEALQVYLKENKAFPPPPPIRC
# EXPERIMENT: biochemical
# Assay type: binding
# MEASUREMENT CONTEXT: HparOBP14 and 1-NPN 2 µM each, titrated with compound 2–40 μM; read-out: IC50
pIC50: −log10 of the molar value. Counter-ions that a name gives are not always drawn.
MEASURED PARAMETER: pIC50

Entry under test: "C=C1CC/C=C(\C)CC[C@@H]2[C@@H]1CC2(C)C" . Its pIC50 was < 4.40

Entry under test: "CCCCCCCC=O" . Its pIC50 was < 4.40

Entry under test: "CO" . Its pIC50 was 4.49

Entry under test: "C=O" . Its pIC50 was 4.46

Entry under test: CCCCC(CC)CO (centres unmarked) . Its pIC50 was < 4.40

Entry under test: CCCC(O)CC (centres unmarked) . Its pIC50 was < 4.40

Entry under test: "CCCCCCCCCCCC=O" . Its pIC50 was < 4.40

Entry under test: "Cc1c[nH]c2ccccc12" . Its pIC50 was 4.61

Entry under test: C=C1C2CCC(C2)C1(C)C (centres unmarked) . Its pIC50 was < 4.40

Entry under test: CC/C=C\CCOC(C)=O [cis-3-hexenyl acetate] . Its pIC50 was < 4.40

Entry under test: CC1=CCC2C(C1)C2(C)C (centres unmarked) . Its pIC50 was < 4.40

Entry under test: "CCCCCCCCCC=O" . Its pIC50 was < 4.40

Entry under test: "CCCCCCCCC=O" . Its pIC50 was < 4.40

Entry under test: CC/C=C\CCOC=O [cis-3-hexenyl formate] . Its pIC50 was < 4.40

---

What IC50 was measured for each of the following?
# STUDY SYSTEM: recombinant HparOBP14 (Holotrichia parallela)
# EXPERIMENT: biochemical
# Format: binding
Give the quantity in µM, number only.

Entry under test: CC(=O)CCC=C(C)C [6-methyl-5-hepten-2-one] . Its IC50 was 32

Entry under test: CC(C)=CCC/C(C)=C/CO [geraniol] . Its IC50 was 40

Entry under test: Cc1ccc(C(C)C)cc1 [p-cymene] . Its IC50 was 29.9

---

# STUDY SYSTEM: recombinant HparOBP14 (Holotrichia parallela, UniProt A0A0G2YD86)
# EXPERIMENT: biochemical
# Assay type: binding
pKi: −log10 of the molar value.
What pKi was measured for each of the following?

Entry under test: CC/C=C\CCO [(Z)-3-hexen-1-ol] . Its pKi was < 4.47

Entry under test: Cc1ccc(O)cc1 [p-cresol] . Its pKi was < 4.47

Entry under test: CC1=CCC2CC1C2(C)C (stereo not drawn) [α-pinene] . Its pKi was 4.48

Entry under test: c1ccc2[nH]ccc2c1 [indole] . Its pKi was < 4.47

Entry under test: CC1=CC[C@H](C(C)C)C=C1 (racemic) [α-phellandrene] . Its pKi was < 4.47

Entry under test: Cc1ccc(C(C)C)cc1 [p-cymene] . Its pKi was 4.59

Entry under test: CCCC(=O)O [butyric acid] . Its pKi was < 4.47

Entry under test: CC(C)=CCC/C(C)=C/CO [geraniol] . Its pKi was 4.47

Entry under test: C=CC(C)(O)CCC=C(C)C (centres unmarked) [linalool] . Its pKi was < 4.47

Entry under test: C=CCc1ccc(O)c(OC)c1 [eugenol] . Its pKi was < 4.47

Entry under test: CC(=O)CCC=C(C)C [6-methyl-5-hepten-2-one] . Its pKi was 4.55
